Read-out: Apolipoprotein A-V (APOA5) gene, APOA5 (gene 116519)
assay comment: LTEA_HepaRG_APOA5: Life Technologies and Expression Analysis (LTEA) Assay for Apolipoprotein A-V (APOA5) gene using HepaRG (AID 2283474)
condition description: mRNA level, 48 h; actives raise or lower the signal
Calls of active or inactive are those of the source. Rule for the calls: active = hit-call score of the fitted dose curve at least 0.9, where 1 is the maximum; inactive = score below 0.9.
Form entry, call: pick from 1.0 = active, 0.0 = inactive

Q) Lab log entry: COC(=O)N(C(=O)N1CO[C@@]2(C(=O)OC)Cc3cc(Cl)ccc3C2=N1)c1ccc(OC(F)(F)F)cc1 — outcome as called in the assay?
A) 0.0

Q) And what about the compound COc1ccc(-c2ccccc2)cc1NNC(=O)OC(C)C ?
A) 0.0

Q) And what about the compound COc1cc(Cl)c(OC)cc1Cl ?
A) 0.0

Q) And what about the compound COC(=O)c1c(C(F)F)nc(C(F)(F)F)c(C2=NCCS2)c1CC(C)C ?
A) 0.0

Q) And what about the compound COc1cc(OC)nc(NC(=O)NS(=O)(=O)c2ncccc2OCC(F)(F)F)n1 ?
A) 0.0

Q) And what about the compound CCOP(=S)(OCC)Oc1nc(Cl)n(C(C)C)n1 ?
A) 1.0

Q) And what about the compound CS(=O)(=O)c1cc(C(F)(F)F)ccc1C(=O)c1cnoc1C1CC1 ?
A) 0.0

Q) And what about the compound CS(=O)(=O)c1ccc(C(=O)C2C(=O)CCCC2=O)c([N+](=O)[O-])c1 ?
A) 0.0

Q) And what about the compound CCNP(=S)(OC)O/C(C)=C/C(=O)OC(C)C (configuration not stated) ?
A) 0.0

Q) And what about the compound O=C1C2CC=CCC2C(=O)N1SC(Cl)(Cl)Cl (configuration not stated) ?
A) 0.0

Q) And what about the compound CC(C)(C)C(=O)C(Oc1ccc(Cl)cc1)n1cncn1 (configuration not stated) ?
A) 0.0

Q) And what about the compound CC1(C)C(C=C(Cl)Cl)C1C(=O)OC(C#N)c1cccc(Oc2ccccc2)c1 (configuration not stated) ?
A) 0.0

Q) And what about the compound CO/N=C(/C1=NOCCO1)c1ccccc1Oc1ncnc(Oc2ccccc2Cl)c1F ?
A) 1.0

Q) And what about the compound Nc1cnn(-c2ccccc2)c(=O)c1Cl ?
A) 0.0

Q) And what about the compound CCCCOCN(C(=O)CCl)c1c(CC)cccc1CC ?
A) 0.0

Q) And what about the compound C=CCOC(=O)C(C)(C)OC(=O)c1cc(-n2c(=O)cc(C(F)(F)F)n(C)c2=O)ccc1Cl ?
A) 0.0

Q) And what about the compound CCCN(CC)CC1COC2(CCC(C(C)(C)C)CC2)O1 (configuration not stated) ?
A) 0.0

Q) And what about the compound O=c1n(Cl)c(=O)n(Cl)c(=O)n1Cl ?
A) 0.0

Q) And what about the compound CC(C)Nc1nc(Cl)nc(NC(C)C)n1 ?
A) 0.0

Q) And what about the compound Cc1cc(C)nc(Nc2ccccc2)n1 ?
A) 0.0

Q) And what about the compound COP(=S)(OC)Oc1ccc([N+](=O)[O-])c(C)c1 ?
A) 0.0

Q) And what about the compound CCN(CC)c1nc(C)cc(OP(=S)(OC)OC)n1 ?
A) 0.0

Q) And what about the compound CCCCC(C#N)(Cn1cncn1)c1ccc(Cl)cc1 (configuration not stated) ?
A) 0.0

Q) And what about the compound CC(C)C1(C)N=C(c2ncccc2C(=O)O)NC1=O (configuration not stated) ?
A) 0.0

Q) And what about the compound Cc1ccc(N=CN(C)C=Nc2ccc(C)cc2C)c(C)c1 ?
A) 0.0

Q) And what about the compound CN/C(=N\[N+](=O)[O-])NCc1cnc(Cl)s1 ?
A) 0.0

Q) And what about the compound CC(C)N1C(=O)N(c2ccccc2)CSC1=NC(C)(C)C ?
A) 1.0

Q) And what about the compound CCOP(=O)(OCC)Oc1nc(Cl)c(Cl)cc1Cl ?
A) 1.0

Q) And what about the compound CCCC(=NOCC)C1=C(O)CC(CC(C)SCC)CC1=O (configuration not stated) ?
A) 0.0

Q) And what about the compound CC1(C)CCC(=Cc2ccc(Cl)cc2)C1(O)Cn1cncn1 (configuration not stated) ?
A) 1.0

Q) And what about the compound N#Cc1c[nH]cc1-c1cccc2c1OC(F)(F)O2 ?
A) 0.0

Q) And what about the compound O=C(Nc1ccccc1-c1ccc(Cl)cc1)c1cccnc1Cl ?
A) 0.0

* * *

System: guinea pig Dopamine Transporter (DAT), gene 100714898
assay comment: NVS_TR_gDAT: NovaScreen (NVS) Transporter Assay for guinea pig Dopamine Transporter (DAT) (AID 2283369);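 note: active compounds lower bound radioligand signal relative to DMSO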
Inconclusive results are not listed. Active and inactive are the calls of the source. The calls were made as follows: active = hit-call score of the fitted dose curve at least 0.9, where 1 is the maximum; inconclusive = response in the unintended direction; inactive = score below 0.9.
Form entry, call: pick from 1 for active, 0 for inactive

Q) Lab log entry: CCOC(=O)C(C)OC(=O)c1cc(Oc2ccc(C(F)(F)F)cc2Cl)ccc1[N+](=O)[O-] (stereo not drawn) — outcome as called in the assay?
A) 0

Q) And what about the compound CCCCC(C#N)(Cn1cncn1)c1ccc(Cl)cc1 (stereo not drawn) ?
A) 1

Q) And what about the compound CC1(C)CCC(=Cc2ccc(Cl)cc2)C1(O)Cn1cncn1 (stereo not drawn) ?
A) 1

* * *

target or test system: Cytochrome P450 2C19 (Homo sapiens)
assay comment: NVS_ADME_hCYP2C19: NovaScreen (NVS) CYP450-related Enzyme Activity (ADME) Assay for human CYP2C19 (AID 2283113);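 note: potency for inhibition seen as loss of fluorescent signal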
Results filed as inconclusive are left out. Active and inactive are the calls of the source. The calls were made as follows: active = hit-call score of the fitted dose curve at least 0.9, where 1 is the maximum; inconclusive = response in the unintended direction; inactive = score below 0.9.
Could you please report measured AC50 for the items listed next?

Q) Record request: AC50 value, item CCCCOCN(C(=O)CCl)c1c(CC)cccc1CC
A) 1.28 µM (active)

Q) And what about the molecule COc1ccc(-c2ccccc2)cc1NNC(=O)OC(C)C ?
A) 0.447 µM (active)

Q) And what about the molecule CCN(CC)C(=O)C(C)Oc1cccc2ccccc12 (centres undefined) ?
A) 1.15 µM (active)

Q) And what about the molecule O=C(Nc1ccccc1-c1ccc(Cl)cc1)c1cccnc1Cl ?
A) 0.661 µM (active)

Q) And what about the molecule COP(=S)(OC)Oc1ccc([N+](=O)[O-])c(C)c1 ?
A) 0.168 µM (active)

Q) And what about the molecule CC1(C)C(C(=O)OC(C#N)c2cccc(Oc3ccccc3)c2)C1(C)C (centres undefined) ?
A) 13.8 µM (active)

Q) And what about the molecule CSC(=O)c1c(C(F)F)nc(C(F)(F)F)c(C(=O)SC)c1CC(C)C ?
A) 7.01 µM (active)

Q) And what about the molecule CC(C)(C)C(=O)C(Oc1ccc(Cl)cc1)n1cncn1 (centres undefined) ?
A) 1.32 µM (active)

Q) And what about the molecule CO/N=C(/C1=NOCCO1)c1ccccc1Oc1ncnc(Oc2ccccc2Cl)c1F ?
A) 1.41 µM (active)

Q) And what about the molecule COC(=O)N(C(=O)N1CO[C@@]2(C(=O)OC)Cc3cc(Cl)ccc3C2=N1)c1ccc(OC(F)(F)F)cc1 ?
A) 0.102 µM (active)

Q) And what about the molecule CCN(CC)c1nc(C)cc(OP(=S)(OC)OC)n1 ?
A) 0.773 µM (active)

Q) And what about the molecule CCNP(=S)(OC)O/C(C)=C/C(=O)OC(C)C (centres undefined) ?
A) 0.107 µM (active)

Q) And what about the molecule O=C1C2CC=CCC2C(=O)N1SC(Cl)(Cl)Cl (centres undefined) ?
A) 16 µM (active)

Q) And what about the molecule Cc1c(COC(=O)[C@@H]2[C@H](/C=C(\Cl)C(F)(F)F)C2(C)C)cccc1-c1ccccc1 ?
A) 12.9 µM (active)

* * *

Read-out: Thrombomodulin, THBD (gene 7056)
assay comment: BSK_CASM3C_Thrombomodulin: BioMAP Diversity Plus: CASM3C Assay for Thrombomodulin Biomarker Activity (AID 2283051);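 note: thrombomodulin protein level measured by ELISA 24 h after dosing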
condition description: primary human coronary artery smooth muscle cells; actives raise or lower the signal
Calls of active or inactive are those of the source. How the source made its calls: active means hit-call score of the fitted dose curve at least 0.9, where 1 is the maximum; inactive means score below 0.9.
measured parameter: AC50

Some solved entries appear below for comparison.
- O=C(O)c1c(Cl)ccc2cc(Cl)cnc12: inactive
- Cc1c(COC(=O)[C@@H]2[C@H](/C=C(\Cl)C(F)(F)F)C2(C)C)cccc1-c1ccccc1: 18.1 µM (active)
- CC1(C)CON(Cc2ccccc2Cl)C1=O: inactive
- CCOP(=O)(OCC)Oc1nc(Cl)c(Cl)cc1Cl: 0.297 µM (active)

Consider now this further molecule.
Q) Record request: AC50 value, item Nc1c(Cl)c(F)nc(OCC(=O)O)c1Cl
A) inactive

* * *

assay comment: BSK_SAg_SRB: Viability Assessment in the BioMAP Diversity Plus: SAg Assay (AID 2283096);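 note: cells read one day after compound addition; hits may be either gain or loss of signal compared with DMSO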
condition description: primary human HUVEC with PBMC
Calls of active or inactive are those of the source. Rule for the calls: active = hit-call score of the fitted dose curve at least 0.9, where 1 is the maximum; inactive = score below 0.9.
Form entry, call: pick from t for active, f for inactive

Q) Lab log entry: N#Cc1c(Cl)cccc1Cl — outcome as called in the assay?
A) f

Q) And what about the compound CCCCOCN(C(=O)CCl)c1c(CC)cccc1CC ?
A) t

Q) And what about the compound CCCC(=NOCC)C1=C(O)CC(CC(C)SCC)CC1=O (centres undefined) ?
A) f

Q) And what about the compound CN=C=S ?
A) f

Q) And what about the compound COc1ccc(-c2ccccc2)cc1NNC(=O)OC(C)C ?
A) f

Q) And what about the compound CCSC(=O)N1CCCCCC1 ?
A) f

Q) And what about the compound CC(C)(C)C(=O)C(Oc1ccc(Cl)cc1)n1cncn1 (centres undefined) ?
A) f

Q) And what about the compound CC1(C)CCC(=Cc2ccc(Cl)cc2)C1(O)Cn1cncn1 (centres undefined) ?
A) f

Q) And what about the compound Nc1c(Cl)c(F)nc(OCC(=O)O)c1Cl ?
A) f

Q) And what about the compound COC(=O)N(C(=O)N1CO[C@@]2(C(=O)OC)Cc3cc(Cl)ccc3C2=N1)c1ccc(OC(F)(F)F)cc1 ?
A) t

Q) And what about the compound COCC(=O)N(c1c(C)cccc1C)C(C)C(=O)OC (centres undefined) ?
A) t

Q) And what about the compound CCOc1nc(F)cc2nc(S(=O)(=O)Nc3c(Cl)cccc3Cl)nn12 ?
A) f

Q) And what about the compound CCOc1nc(C(Cl)(Cl)Cl)ns1 ?
A) f

Q) And what about the compound CC1(C)C(C(=O)OC(C#N)c2cccc(Oc3ccccc3)c2)C1(C)C (centres undefined) ?
A) t
